# TARGET_UNDER_TEST: T1, Recombinant human IL-15 (human, UniProt P40933 49-162)
# T1 construct: also called rIL-15; human rIL-15
# TEST_DETAILS: Competition with 125I-rIL-15 (200 pM) binding to IL-15Rα on TF-1 cells
pIC50: −log10 of the molar value.

[
  {
    "BINDER": "sIL-15Rα-sushi (receptor, also called soluble sushi domain; not shown: Vector-encoded tag of pQE30; The protein was trapped on Ni-NTA agarose) ITCPPPMSVEHADIWVKSYSLYSRERYICNSGFKRKAGTSSLTECVLNKATNVAHWTTPSLKCIRD",
    "pIC50": 8.89
  }
]
